Value source: paper PMC9490236

- assayComment: Pharmacokinetics and oral bioavailability of D11.3 in male Swiss albino mice (IV, PO, SQ)
- Assay type: in vivo
- testSettings: male, Swiss Albino, mouse, plasma, iv, 1 mg/kg, IV 1.00 mg/kg, 0.5 h, individual mice M1, M2, M3; read-out: Plasma concentration
Where a SMILES comes first, the peptide text is derived from it. [ ]: non-standard residue; d: D form. dNMeI = CC[C@@H](C)[C@@H](NC)C(=O)O; NMeL = CN[C@@H](CC(C)C)C(=O)O
propertyLabel: level at 0.5 h

compound: CC[C@@H](C)[C@H]1NC(=O)[C@H]([C@@H](C)CC)NC(=O)[C@H](CC(C)C)N(C)C(=O)[C@H]2CCCN2C(=O)[C@@H]([C@H](C)CC)NC(=O)[C@@H]([C@H](C)CC)N(C)C(=O)[C@H](CC(C)C)NC(=O)[C@H]2CCCN2C(=O)[C@@H]2CCCN2C(=O)[C@H](C(C)C)NC(=O)[C@H]2CCCN2C1=O [Design D11.3] (cyclo(I[dI][dP]VP[dP]L[dNMeI][dI][dP][NMeL]))
testValue: 2570 ng/mL

====

- testSettings: PAMPA
Where a SMILES comes first, the peptide text is derived from it. [ ]: non-standard residue; d: D form. NMeL = CN[C@@H](CC(C)C)C(=O)O; dNMeL = CN[C@H](CC(C)C)C(=O)O; NMeA = CN[C@@H](C)C(=O)O; Nle = CCCC[C@H](N)C(=O)O; dNMeA = CN[C@H](C)C(=O)O
Recorded measurements of PAMPA_R3, one per entry

compound: CC(C)C[C@@H]1C(=O)N(C)[C@@H](Cc2ccccc2)C(=O)N[C@@H](C(C)C)C(=O)N2CCC[C@H]2C(=O)NCC(=O)N2CCC[C@H]2C(=O)N(C)[C@H](CC(C)C)C(=O)N[C@@H](C(C)C)C(=O)N[C@H](CC(C)C)C(=O)N1C (single isomer, unassigned) [Design D9.43.p1]
PAMPA_R3: 5.40E-07

compound: CC[C@H](C)[C@@H]1NC(=O)[C@H](C(C)C)NC(=O)[C@@H](CC(C)C)N(C)C(=O)[C@H](Cc2ccccc2)NC(=O)[C@@H](CC(C)C)N(C)C(=O)[C@@H](C)N(C)C(=O)[C@H]2CCCN2C(=O)[C@@H]2CCCN2C(=O)[C@H](CC(C)C)NC(=O)[C@@H](C)N(C)C(=O)[C@@H]2CCCN2C1=O [Design D11.20] (cyclo(F[dNMeL]VIP[dNMeA]LP[dP][dNMeA][dNMeL]))
PAMPA_R3: 9.60E-07

compound: CC[C@H](C)[C@@H]1NC(=O)CNC(=O)[C@@H]2CCCN2C(=O)[C@H]2CCCN2C(=O)[C@H]([C@@H](C)CC)NC(=O)[C@@H](C)N(C)C(=O)[C@@H]2CCCN2C(=O)[C@H](C(C)C)NC(=O)[C@@H](CC(C)C)NC1=O [Design D9.33, DPRO PRO GLY ILE DLEU VAL PRO *DALA ILE] (cyclo(GI[dL]VP[dNMeA]I[dP]P))
PAMPA_R3: 4.74E-07

compound: CC(C)C[C@@H]1NC(=O)[C@@H]2CCCN2C(=O)[C@H]2CCCN2C(=O)[C@@H](C)N(C)C(=O)[C@@H](CC(C)C)N(C)C(=O)[C@H](C(C)C)NC(=O)[C@@H](C)N(C)C(=O)[C@H]2CCCN2C(=O)[C@@H]2CCCN2C1=O [Design D9.22] (cyclo(LP[dP][dNMeA]V[dNMeL][dNMeA][dP]P))
PAMPA_R3: 1.82E-07

compound: CC[C@@H](C)[C@H]1NC(=O)[C@@H]2CCCN2C(=O)[C@@H](CC(C)C)N(C)C(=O)[C@@H](C(C)C)NC(=O)[C@@H]2CCCN2C(=O)[C@@H](CC(C)C)N(C)C(=O)[C@H](C)N(C)C(=O)[C@@H](C)NC1=O [Design D8.18, DILE DALA *ALA *DLEU PRO DVAL *DLEU PRO] (cyclo([NMeA][dNMeL]P[dV][dNMeL]P[dI][dA]))
PAMPA_R3: 9.35E-07

compound: CC(C)C[C@@H]1NC(=O)[C@@H](CC(C)C)NC(=O)[C@H]2CCCN2C(=O)[C@H](CC(C)C)NC(=O)[C@@H](CC(C)C)NC(=O)[C@H](CC(C)C)NC(=O)[C@@H]2CCCN2C(=O)[C@@H](C)NC1=O [Design D8.1, DLEU LEU DPRO DLEU LEU DALA PRO LEU] (cyclo(L[dA]PL[dL]L[dP][dL]))
PAMPA_R3: 6.42E-06

compound: CCCC[C@@H]1NC(=O)[C@H](CC(C)C)NC(=O)[C@@H]2CCCN2C(=O)[C@H]2CCCN2C(=O)[C@@H](C)NC(=O)[C@H]2CCCN2C(=O)[C@@H](CC(C)C)NC(=O)[C@@H](C)N(C)C(=O)[C@H](CC(C)C)N(C)C(=O)[C@@H](C)N(C)C1=O [Design D10.40] (cyclo(L[Nle][dNMeA][NMeL][dNMeA][dL][dP][dA][dP]P))
PAMPA_R3: 6.95E-07

compound: CC[C@H](C)[C@@H]1NC(=O)[C@@H](C)N(C)C(=O)[C@H]2CCCN2C(=O)[C@H]2CCCN2C(=O)[C@H](Cc2ccccc2)NC(=O)[C@@H](CC(C)C)NC(=O)[C@@H](CC(C)C)N(C)C(=O)[C@@H]2CCCN2C1=O [Design D8.17, PRO *DLEU DLEU PHE DPRO DPRO *DALA ILE] (cyclo(F[dP][dP][dNMeA]IP[dNMeL][dL]))
PAMPA_R3: 8.83E-07
